system: L5178Y; assay: Cytotoxicity against mouse L5178Y cells assessed as growth inhibition by MTT assay; type: functional, cell-based
Known IC50 of a selection of molecules

{"mol.smiles": "CC1=CCC[C@H]2[C@](C)(Cc3c4oc(C)nc4cc4nc(C)oc34)[C@@H](C)CC[C@@]12C", "IC50": "> 10 µM"}
{"mol.smiles": "COc1cc2nc(C)oc2c(C[C@]2(C)[C@@H](C)CC[C@@]3(C)C(C)=CCC[C@@H]23)c1O", "IC50": "> 10 µM"}
{"mol.smiles": "COC(=O)c1cc(O)c(O)c(C[C@]2(C)[C@@H](C)CC[C@@]3(C)C(C)=CCC[C@@H]23)c1", "IC50": "> 10 µM"}
